# Tested target: CGRP antigen
# Assay details: cell-based or functional assay
Parameter: relative activity (%) vs Ref(TEVA)
// note: answer is a bare numeric in %

Binder	Unit symbol	relative activity (%) vs Ref(TEVA)
hu86 (antibody, V domains shown, 1F5 HC-5/1F5 LC1-4) VH: QVQLVQSGAEVKKPGASVKVSCKASGYTFIDFNMHWVRQAPGQRLEWMGYIYPYNADVVYNQDFTNRVTLTVDTSSSTAYMELSSLRSEDTAVYYCAREGLGGYWGQGTLVTVSS VL: DIVLTQSPDSLAVSLGERATINCKASQNIDFDGYAYMNWYQHKPGQPPKVLIYSVFNLESGVPDRFSGSGSGTDFTLTISSLQAEDVAVYYCQQSHEVPYTFGQGTKLEIK	%	35
hu87 (antibody, V domains shown, 1F5 HC-5/2B8 LC2-1) VH: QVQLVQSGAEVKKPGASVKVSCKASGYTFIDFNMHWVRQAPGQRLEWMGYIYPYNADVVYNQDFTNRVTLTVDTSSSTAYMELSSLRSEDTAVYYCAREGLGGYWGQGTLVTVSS VL: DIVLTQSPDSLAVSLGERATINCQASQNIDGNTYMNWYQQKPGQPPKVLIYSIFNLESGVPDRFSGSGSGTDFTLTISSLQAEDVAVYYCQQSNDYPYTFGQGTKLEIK	%	38
hu37 (antibody, V domains shown, 1F5 HC-1/3E5 LC-1) VH: QVQLVQSGAEVKKPGASVKVSCKASGYTFIDFNMHWVRQAPGQRLEWMGYIYPYNGDVVYNQNFTNRVTLTVDTSSSTAYMELSSLRSEDTAVYYCAREGLGGYWGQGTLVTVSS VL: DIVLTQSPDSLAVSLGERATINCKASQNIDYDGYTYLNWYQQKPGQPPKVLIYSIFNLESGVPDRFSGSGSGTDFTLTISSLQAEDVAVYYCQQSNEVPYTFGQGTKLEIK	%	46
hu38 (antibody, V domains shown, 1F5 HC-1/3H10 LC2-1) VH: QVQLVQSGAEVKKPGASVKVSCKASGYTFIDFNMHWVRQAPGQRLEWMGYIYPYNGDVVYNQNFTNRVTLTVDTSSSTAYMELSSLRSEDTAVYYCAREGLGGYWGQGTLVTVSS VL: DIVLTQSPDSLAVSLGERATINCKASQNIDYGGYSYMNWYQQKPGQPPKVLIYSVFNLESGVPDRFSGSGSGTDFTLTISSLQAEDVAVYYCQQSNEAPYTFGQGTKLEIK	%	50
hu129 (antibody, V domains shown, 2B8 HC1-2/3H10 LC2-1) VH: QVQLVQSGAEVKKPGASVKVSCKASGYTFTDYNMHWVRQAPGQGLEWMGNIYPYNGGTVYNQKFNNRVTLTVDTSSSTAYMELRSLRSDDTAVYYCAREGLGGYWGQGTLVTVSS VL: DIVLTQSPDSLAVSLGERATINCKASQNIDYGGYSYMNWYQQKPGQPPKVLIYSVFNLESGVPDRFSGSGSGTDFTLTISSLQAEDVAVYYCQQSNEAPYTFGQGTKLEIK	%	39
hu74 (antibody, V domains shown, 1F5 HC-4/2B8 LC2-1) VH: QVQLVQSGSELKKPGASVKVSCKASGYTFTDFNMHWVRQAPGQGLEWMGYIYPYNGDVVYNQNFTNRFVLSVDSSSSTAYLQISSLKAEDTAVYYCAREGLGGYWGQGTLVTVSS VL: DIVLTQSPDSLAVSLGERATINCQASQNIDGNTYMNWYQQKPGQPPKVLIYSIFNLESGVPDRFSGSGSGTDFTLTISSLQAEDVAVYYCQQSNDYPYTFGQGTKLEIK	%	58

hu89 (antibody, V domains shown, 1F5 HC-5/3E5 LC-1) VH: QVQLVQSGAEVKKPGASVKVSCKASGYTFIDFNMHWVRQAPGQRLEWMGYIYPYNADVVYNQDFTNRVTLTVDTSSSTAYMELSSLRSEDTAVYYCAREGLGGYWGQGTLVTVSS VL: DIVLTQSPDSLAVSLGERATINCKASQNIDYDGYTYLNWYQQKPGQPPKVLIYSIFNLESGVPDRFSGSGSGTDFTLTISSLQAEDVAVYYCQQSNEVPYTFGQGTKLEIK yielded relative activity (%) vs Ref(TEVA) of 48

Lab note: hu45 (antibody, V domains shown, 1F5 HC-2/1F5 LC1-2) VH: QVQLVQSGAEVKKPGASVKVSCKASGYTFTDFNMHWVRQAPGQRLEWMGYIYPYNGDVVYNQNFTNRVTLTVDTSSSTAYMELSSLRSEDTAVYYCAREGLGGYWGQGTLVTVSS VL: EIVLTQSPATLSLSPGERATLSCKASQNIDFDGYAYMNWYQHKPGQAPRVLIYSVFNLESGIPARFSGSGSGTDFTLTISSLEPEDFAVYYCQQSHEVPYTFGQGTKLEIK gave relative activity (%) vs Ref(TEVA) of 33

relative activity (%) vs Ref(TEVA) measured on hu145 (antibody, V domains shown, 3E5 HC-1/1A2 LC2-2) VH: QVQLVQSGAEVKKPGASVKVSCKTSGYTFTDYNMHWVRQAPGQRLEWMGYISPYNGGTAYNQKFKFRVTLTVDTSSSTAYMELSSLRSEDTAVYYCAREGLGGYWGQGTLVTVSS VL: DIVLTQSPASLAVSPGQRATITCKASQNIDYDGYAYLNWYQQKPGQPPKVLIYSVFNLESGVPARFSGSGSGTDFTLTINPVEADDTANYYCQQSNEFPYTFGQGTKLEIK = 35

# relative activity (%) vs Ref(TEVA) (binder: hu64 (antibody, V domains shown, 1F5 HC-3/3H10 LC2-1) VH: QVQLVQSGAEVKKPGASVKVSCKASGYTFTDFNMHWVRQAPGQGLEWMGYIYPYNGDVVYNQNFTNRVTLTVDTSSSTAYMELRSLRSDDTAVYYCAREGLGGYWGQGTLVTVSS VL: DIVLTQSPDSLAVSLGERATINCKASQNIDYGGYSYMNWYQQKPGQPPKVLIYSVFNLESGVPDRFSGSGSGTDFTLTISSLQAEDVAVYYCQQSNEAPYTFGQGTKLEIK ) is 44
